Target: Pisum sativum agglutinin (PSA, pea lectin) (Lathyrus oleraceus, UniProt P02867)
Sequence (P02867 31-217): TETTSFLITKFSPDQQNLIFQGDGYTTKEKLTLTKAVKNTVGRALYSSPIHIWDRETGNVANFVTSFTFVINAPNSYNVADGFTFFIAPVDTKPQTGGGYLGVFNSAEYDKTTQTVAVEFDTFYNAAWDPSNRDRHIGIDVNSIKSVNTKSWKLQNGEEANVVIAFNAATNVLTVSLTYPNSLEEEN
Sequence (P02867 218-275): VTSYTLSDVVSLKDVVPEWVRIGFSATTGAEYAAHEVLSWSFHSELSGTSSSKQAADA
Experiment: ITC at […] K
Assay type: binding
assay_readout: Kd (µM)
A number alone suffices; assume µM.

Kd measured on CO[C@H]1O[C@H](CO)[C@@H](O)[C@H](O)[C@@H]1O [compound 1, methyl α-D-mannopyranoside] = 806

All figures here come from paper PMC5435455.
